Tested on: Breast cancer T-47D cells
Assay: Antibody cytotoxicity assay (Annexin V + PI), T-47D
Type: cell-based
Conditions: 1, 3 and 10 μg/ml, overnight

molecule	Induction of cell death (in words)
12H8: murine anti-human EpCAM monoclonal antibody (IgG2a, K), hybridoma m342-12H8.3; VH SEQ ID NO:3, VL SEQ ID NO:5 (antibody, listed as Mus musculus, V domains shown) VH: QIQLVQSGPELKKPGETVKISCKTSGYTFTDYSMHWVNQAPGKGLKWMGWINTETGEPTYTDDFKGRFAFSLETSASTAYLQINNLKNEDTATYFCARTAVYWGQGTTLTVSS VL: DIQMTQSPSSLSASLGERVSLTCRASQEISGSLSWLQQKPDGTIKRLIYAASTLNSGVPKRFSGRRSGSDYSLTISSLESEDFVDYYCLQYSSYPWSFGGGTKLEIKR	substantial cell death
6D11: murine anti-human EpCAM monoclonal antibody (IgG1, K), hybridoma m338-6D11.8; VH SEQ ID NO:23, VL SEQ ID NO:25 (antibody, listed as Mus musculus, V domains shown) VH: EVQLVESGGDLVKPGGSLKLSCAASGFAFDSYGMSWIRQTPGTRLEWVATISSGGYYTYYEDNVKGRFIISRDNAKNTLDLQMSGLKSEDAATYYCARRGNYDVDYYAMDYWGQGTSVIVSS VL: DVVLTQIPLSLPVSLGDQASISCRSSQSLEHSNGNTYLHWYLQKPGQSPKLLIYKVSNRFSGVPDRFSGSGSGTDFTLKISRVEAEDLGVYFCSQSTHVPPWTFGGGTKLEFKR	substantial cell death
